Reported TGI is given for each of the following molecules.
- System: HCC-2998 colon
- METHOD SUMMARY: NCI tumour cell line growth inhibition, 48 h

{"MOLECULE": "CCCCCCCC/C=C/CCCCCCCCC1=NCCN1CCO", "SIGN QUALIFIER": "=", "TGI, µM": 34.2}
{"MOLECULE": "O=C(NNC(=S)Nc1ccccc1)c1ccccc1Nc1ccccc1C(=O)NNC(=S)Nc1ccccc1", "SIGN QUALIFIER": "=", "TGI, µM": 37.1}
{"MOLECULE": "NC(CSC(c1ccccc1)(c1ccccc1)c1ccc(Cl)cc1)C(=O)O (configuration not stated)", "SIGN QUALIFIER": "=", "TGI, µM": 2.77}
{"MOLECULE": "CN(C)CCNc1ccc2c(=O)n(CCN(C)C)c(=O)n3c4ccc([N+](=O)[O-])cc4c(=O)c1c23", "SIGN QUALIFIER": "=", "TGI, µM": 2.27}
{"MOLECULE": "O=c1[nH]c(Nc2cccc(C(F)(F)F)c2)nc2nc[nH]c12", "SIGN QUALIFIER": ">", "TGI, µM": 100}
{"MOLECULE": "CC/C=C1\\N=C(c2ccc(Cl)cc2)OC1=O", "SIGN QUALIFIER": ">", "TGI, µM": 100}
{"MOLECULE": "CN1C2CC(=O)CC1[C@H](O)[C@@H]2O", "SIGN QUALIFIER": ">", "TGI, µM": 100}
{"MOLECULE": "Cc1c(CCOC=O)c(=O)[nH]c2nncn12", "SIGN QUALIFIER": ">", "TGI, µM": 100}
{"MOLECULE": "COc1cc(C(=O)/C=C/c2cc(C(=O)c3cc(OC)c(OC)c(OC)c3)ccc2OC)ccc1N", "SIGN QUALIFIER": "=", "TGI, µM": 2.64}
{"MOLECULE": "COc1ccc(NC(=O)n2nc(N)c3ccccc32)cc1OC", "SIGN QUALIFIER": ">", "TGI, µM": 100}
{"MOLECULE": "C[C@]12CC[C@@H]3c4cc(OCC(F)(F)F)c(O)cc4C(=O)C[C@H]3[C@@H]1CC[C@@H]2O", "SIGN QUALIFIER": "=", "TGI, µM": 38.7}
{"MOLECULE": "Cn1c2c(c3ccccc31)C1CCCCC1C1C(=O)NC(=O)C21 (configuration not stated)", "SIGN QUALIFIER": ">", "TGI, µM": 100}
{"MOLECULE": "CCN(CC)c1cc(/C=C/c2ccc(OC)c(OC)c2)nc2cc(F)c(F)cc12", "SIGN QUALIFIER": ">", "TGI, µM": 100}
{"MOLECULE": "CCOC(=O)c1csc(NC(=O)CCN2CCCCC2)n1", "SIGN QUALIFIER": ">", "TGI, µM": 100}
{"MOLECULE": "C[C@H](Nc1c(O)c2c(c(O)c1Cl)C(=O)C=CC2=O)C(=O)Nc1ccc([N+](=O)[O-])cc1", "SIGN QUALIFIER": "=", "TGI, µM": 8.05}
{"MOLECULE": "CCCCC(=O)Nc1ccc2cc(C(=O)OC)c(ON3C(=O)c4ccccc4C3=O)nc2n1", "SIGN QUALIFIER": ">", "TGI, µM": 100}
{"MOLECULE": "CN(C)c1ccc(/C=C(/NC(=O)c2ccccc2)c2nc3ccc(Cl)cc3[nH]2)cc1", "SIGN QUALIFIER": ">", "TGI, µM": 75.5}
{"MOLECULE": "CC(=O)OC1CC(n2cc(F)c(=O)[nH]c2=O)OC1CO (configuration not stated)", "SIGN QUALIFIER": "=", "TGI, µM": 8.33}
{"MOLECULE": "O=[N+]([O-])c1ccc(-c2nc(-c3ccccc3)c(-c3ccccc3)n2-c2ccccc2)cc1", "SIGN QUALIFIER": "=", "TGI, µM": 4.1}
{"MOLECULE": "CCn1cc(/C=C/C(C)c2cn(CC)c(=O)[nH]c2=O)c(=O)[nH]c1=O (configuration not stated)", "SIGN QUALIFIER": ">", "TGI, µM": 100}
{"MOLECULE": "Cc1ccc(-c2nc(SCC(=O)O)n[nH]2)cc1", "SIGN QUALIFIER": ">", "TGI, µM": 100}
{"MOLECULE": "CCOC(=O)c1c(C)c2c(n1C)CCc1cn[nH]c1-2", "SIGN QUALIFIER": ">", "TGI, µM": 100}

* * *

- Tested on: UO-31 renal
- METHOD SUMMARY: NCI tumour cell line growth inhibition, 48 h
METRIC: TGI

{"COMPOUND": "CCCCC(=O)Nc1ccc2cc(C(=O)OC)c(ON3C(=O)c4ccccc4C3=O)nc2n1", "TARGET SYSTEM": "UO-31 renal", "OBSERVED VALUE": "44.4 µM"}
{"COMPOUND": "CN(NC(=O)CCCl)C1=NCCN1", "TARGET SYSTEM": "UO-31 renal", "OBSERVED VALUE": "> 100 µM"}
{"COMPOUND": "O=C1C(Br)=CC2(C=C1Br)CCN=c1c2c(O)c2nc3ccccc3c3ccnc1c23", "TARGET SYSTEM": "UO-31 renal", "OBSERVED VALUE": "1.55 µM"}
{"COMPOUND": "CCCN(CCCC(NC(C)=O)C(=O)NCc1ccccc1)C(=O)NC (configuration not stated)", "TARGET SYSTEM": "UO-31 renal", "OBSERVED VALUE": "> 100 µM"}
{"COMPOUND": "COC(OC)c1cccc2c1C(=O)CCC1(O)c3ccccc3C1C2 (configuration not stated)", "TARGET SYSTEM": "UO-31 renal", "OBSERVED VALUE": "> 100 µM"}
{"COMPOUND": "Cc1cccc2c1Oc1ccccc1C2NC(=O)c1ccc([N+](=O)[O-])cc1 (configuration not stated)", "TARGET SYSTEM": "UO-31 renal", "OBSERVED VALUE": "> 100 µM"}
{"COMPOUND": "CCOC(=O)c1csc(NC(=O)CCN2CCCCC2)n1", "TARGET SYSTEM": "UO-31 renal", "OBSERVED VALUE": "> 100 µM"}
{"COMPOUND": "O=[N+]([O-])c1ccc(-c2nc(-c3ccccc3)c(-c3ccccc3)n2-c2ccccc2)cc1", "TARGET SYSTEM": "UO-31 renal", "OBSERVED VALUE": "6.67 µM"}
{"COMPOUND": "O=S(O)CCCCCSSCCCCSSCCCCCS(=O)O", "TARGET SYSTEM": "UO-31 renal", "OBSERVED VALUE": "> 100 µM"}
{"COMPOUND": "COc1cccc(C2C(C#N)=C(N)Oc3cc(N)ccc32)c1 (configuration not stated)", "TARGET SYSTEM": "UO-31 renal", "OBSERVED VALUE": "> 100 µM"}
{"COMPOUND": "Nc1c(-c2nc3ccccc3s2)c2ccc([N+](=O)[O-])cc2c(=O)n1-c1cccc(C(=O)O)c1", "TARGET SYSTEM": "UO-31 renal", "OBSERVED VALUE": "71.8 µM"}
{"COMPOUND": "CC(=O)C(=[N+]=[N-])C(=O)OC(C)(C)C#N", "TARGET SYSTEM": "UO-31 renal", "OBSERVED VALUE": "> 10 µM"}

* * *

- Test system: MOLT-4 leukemia
- METHOD SUMMARY: NCI tumour cell line growth inhibition, 48 h
Where a SMILES comes first, the peptide text is derived from it. [ ]: non-standard residue; d: D form. The star is where a group is joined. AllylGly = C=CC[CH](N)C(=O)O; Boc = CC(C)(C)OC(=O)*; OtBu = CC(C)(C)O*
Reported TGI is given for each of the following molecules.

{"MOLECULE": "CN1C2CC(=O)CC1[C@H](O)[C@@H]2O", "TGI": "> 100 µM"}
{"MOLECULE": "CN(C)CCNc1ccc2c(=O)n(CCN(C)C)c(=O)n3c4ccc([N+](=O)[O-])cc4c(=O)c1c23", "TGI": "0.0685 µM"}
{"MOLECULE": "O=C(NNC(=S)Nc1ccccc1)c1ccccc1Nc1ccccc1C(=O)NNC(=S)Nc1ccccc1", "TGI": "> 100 µM"}
{"MOLECULE": "CCOC(=O)C(=O)Nc1c(F)cc(F)cc1Br", "TGI": "> 100 µM"}
{"MOLECULE": "O=C(O)C1CCCN1Cc1cc2ccccc2c2ccccc12 (stereo not given)", "TGI": "> 100 µM"}
{"MOLECULE": "C[C@]12CC[C@@H]3c4cc(OCC(F)(F)F)c(O)cc4C(=O)C[C@H]3[C@@H]1CC[C@@H]2O", "TGI": "> 100 µM"}
{"MOLECULE": "CCCC/C=C/C1Cc2ccccc2CN1S(=O)(=O)c1ccc(C)cc1 (stereo not given)", "TGI": "53.3 µM"}
{"MOLECULE": "C=CCC(NC(=O)C(CC(=O)OC(C)(C)C)NC(=O)OC(C)(C)C)C(=O)OC (stereo not given) (Boc-Asp(OtBu)-[AllylGly]-OMe; configuration not given here)", "TGI": "> 91.6 µM"}
{"MOLECULE": "C[C@H](Nc1c(O)c2c(c(O)c1Cl)C(=O)C=CC2=O)C(=O)Nc1ccc([N+](=O)[O-])cc1", "TGI": "> 10 µM"}
{"MOLECULE": "CCC(C)n1cc(C)c2c(C(=O)NCc3c(C)cc(C)[nH]c3=O)cc(Br)cc21 (stereo not given)", "TGI": "71.6 µM"}
{"MOLECULE": "CC(C)NC(=O)CN1CCN(C2=CC(=O)c3c(O)ccc(O)c3C2=O)CC1", "TGI": "> 100 µM"}
{"MOLECULE": "Cc1cn(C2CCC(/C=N\\O)O2)c(=O)[nH]c1=O (stereo not given)", "TGI": "> 100 µM"}
{"MOLECULE": "COc1cc(C2c3cc4c(cc3OC(Nc3ccc(C(=O)O)cc3)C2C)OCO4)cc(OC)c1OC (stereo not given)", "TGI": "25.8 µM"}
{"MOLECULE": "CC1=C2c3c(C)ccc4ccc(C)c(c34)C2(O)C(C)C1=O (stereo not given)", "TGI": "> 100 µM"}
{"MOLECULE": "COc1ccc2oc3c4c2c1CCC4CCC3=O (stereo not given)", "TGI": "> 100 µM"}
{"MOLECULE": "COC1=CC(=O)[C@H]2[C@H](C)C(c3ccccc3)[C@@]2(C)C1=O (stereo not given in full)", "TGI": "> 100 µM"}
{"MOLECULE": "CCNCC(=O)O[C@]1(CC)C(=O)OCc2c1cc1n(c2=O)Cc2cc3ccccc3nc2-1", "TGI": "0.159 µM"}
{"MOLECULE": "O=C(O)C1C(C(=O)Nc2ccc3c(c2)Cc2ccccc2-3)C2(Cl)C(Cl)=C(Cl)C1(Cl)C2(Cl)Cl (stereo not given)", "TGI": "26.1 µM"}
{"MOLECULE": "CN(NC(=O)CCCl)C1=NCCN1", "TGI": "> 100 µM"}
{"MOLECULE": "COc1nc(SC)nc2c1cnn2C1OC(C(O)CO)C(OC)C1O (stereo not given)", "TGI": "69 µM"}
{"MOLECULE": "COc1ccc(/C(=N/NC(=O)NN)C(c2ccc(OC)cc2)C2(O)CNc3c(Cl)cc(Cl)cc32)cc1 (stereo not given)", "TGI": "> 100 µM"}
{"MOLECULE": "CC1(C)C(=O)C(C)(C)C12SSC1(S2)C(C)(C)C(=O)C1(C)C", "TGI": "> 100 µM"}
{"MOLECULE": "COc1ccc(NC(=O)n2nc(N)c3ccccc32)cc1OC", "TGI": "> 100 µM"}
{"MOLECULE": "Cc1nc2sccn2c(=O)c1CCN1CCC(=C(c2ccc(F)cc2)c2ccc(F)cc2)CC1", "TGI": "29.9 µM"}
{"MOLECULE": "C1CCN(CCC2CCCCN2)CC1 (stereo not given)", "TGI": "> 100 µM"}
